Measured values drawn from patent US20240076386A1 for this set.

# experimental target: T1, human E-selectin extracellular domain with 10 His purification tail (human, UniProt P16581 22-556)
# T1 construct: also called soluable human E-selectin extracellular domain; rhE-Selectin
# T1 sequence: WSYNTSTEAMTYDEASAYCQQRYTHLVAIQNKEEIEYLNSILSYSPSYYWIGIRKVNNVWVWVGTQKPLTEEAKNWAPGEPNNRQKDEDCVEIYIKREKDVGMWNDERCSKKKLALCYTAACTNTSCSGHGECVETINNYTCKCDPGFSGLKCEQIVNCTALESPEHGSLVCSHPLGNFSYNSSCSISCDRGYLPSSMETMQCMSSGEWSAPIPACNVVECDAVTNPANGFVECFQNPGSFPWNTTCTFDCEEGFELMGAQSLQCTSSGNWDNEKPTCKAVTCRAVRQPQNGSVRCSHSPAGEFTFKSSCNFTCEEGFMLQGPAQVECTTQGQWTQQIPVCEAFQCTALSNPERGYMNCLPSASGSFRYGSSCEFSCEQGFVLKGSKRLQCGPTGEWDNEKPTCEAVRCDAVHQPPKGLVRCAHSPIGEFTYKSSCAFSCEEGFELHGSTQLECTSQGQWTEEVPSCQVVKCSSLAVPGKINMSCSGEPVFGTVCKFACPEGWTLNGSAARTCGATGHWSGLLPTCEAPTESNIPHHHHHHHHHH
# assay info: SPR, antibody captured, E-selectin analyte
Assign Kd to each entry below.
Answers are plain numbers, in nM.

[
  {
    "binder": "anti-E-selectin antibody 0170 chimera (antibody, human IgG1, kappa, V domains shown, rat VH/VL on effector-null human IgG1 and human kappa) VH: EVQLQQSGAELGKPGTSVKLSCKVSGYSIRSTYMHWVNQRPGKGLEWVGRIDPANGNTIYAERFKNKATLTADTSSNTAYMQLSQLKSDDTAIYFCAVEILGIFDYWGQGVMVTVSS VL: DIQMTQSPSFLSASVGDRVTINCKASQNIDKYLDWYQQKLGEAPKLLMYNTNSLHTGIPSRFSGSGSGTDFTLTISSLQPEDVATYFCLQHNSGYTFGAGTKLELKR",
    "Kd / nM": 628
  }
]

Parameters: items (list). Returns: Kd for each item.
1. anti-E-selectin antibody 0039 chimera (antibody, human IgG1, kappa, V domains shown, rat VH/VL on effector-null human IgG1 and human kappa) VH: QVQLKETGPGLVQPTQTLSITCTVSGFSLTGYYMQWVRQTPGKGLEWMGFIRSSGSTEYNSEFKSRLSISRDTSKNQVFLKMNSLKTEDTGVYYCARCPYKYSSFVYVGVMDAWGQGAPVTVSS VL: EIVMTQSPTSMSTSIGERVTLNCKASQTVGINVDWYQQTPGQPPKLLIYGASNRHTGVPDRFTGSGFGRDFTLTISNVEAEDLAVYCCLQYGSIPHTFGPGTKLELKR
2. anti-E-selectin antibody 0164 chimera (antibody, human IgG1, kappa, V domains shown, rat VH/VL on effector-null human IgG1 and human kappa) VH: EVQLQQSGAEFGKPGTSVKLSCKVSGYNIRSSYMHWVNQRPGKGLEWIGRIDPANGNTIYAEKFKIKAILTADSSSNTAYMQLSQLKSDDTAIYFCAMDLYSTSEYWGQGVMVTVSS VL: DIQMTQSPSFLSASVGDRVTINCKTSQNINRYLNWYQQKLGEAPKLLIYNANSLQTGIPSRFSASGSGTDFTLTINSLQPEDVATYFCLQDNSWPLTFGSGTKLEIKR

A.
68
54.4
